Biological target: recombinant human TFPI (tissue factor pathway inhibitor) (human, UniProt P10646 29-304)
Test: cell-based or functional assay
readout-name: % of Normalized, TF/FVIIa/FX complex assay (FX 5 nM), Ab 50 nM (%)

binder	meas-value
clone 2 (antibody, V domains shown) VH: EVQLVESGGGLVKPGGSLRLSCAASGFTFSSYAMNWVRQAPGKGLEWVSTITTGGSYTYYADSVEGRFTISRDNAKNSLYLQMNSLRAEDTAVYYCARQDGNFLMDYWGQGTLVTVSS VL: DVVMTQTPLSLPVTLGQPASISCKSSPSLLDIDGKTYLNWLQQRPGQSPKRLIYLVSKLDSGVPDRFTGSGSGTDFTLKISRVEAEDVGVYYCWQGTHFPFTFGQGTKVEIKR	90.9
clone 1023 (antibody, V domains shown, scFv on yeast at selection; human IgG4/kappa IgG as purified) VH: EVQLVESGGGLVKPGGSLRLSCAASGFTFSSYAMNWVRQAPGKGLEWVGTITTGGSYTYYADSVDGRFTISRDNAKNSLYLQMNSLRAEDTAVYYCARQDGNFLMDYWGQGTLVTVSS VL: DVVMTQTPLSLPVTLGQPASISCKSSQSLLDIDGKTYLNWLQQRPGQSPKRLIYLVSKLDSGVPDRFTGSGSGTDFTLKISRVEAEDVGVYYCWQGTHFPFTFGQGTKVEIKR	80.5
clone 8 (antibody, V domains shown) VH: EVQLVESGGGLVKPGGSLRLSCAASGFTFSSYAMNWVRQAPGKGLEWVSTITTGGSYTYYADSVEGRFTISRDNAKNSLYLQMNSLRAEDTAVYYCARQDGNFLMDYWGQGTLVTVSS VL: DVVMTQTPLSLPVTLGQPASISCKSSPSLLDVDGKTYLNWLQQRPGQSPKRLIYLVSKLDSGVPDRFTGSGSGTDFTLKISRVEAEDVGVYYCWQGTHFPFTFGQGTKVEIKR	83.2
clone 3 (antibody, V domains shown) VH: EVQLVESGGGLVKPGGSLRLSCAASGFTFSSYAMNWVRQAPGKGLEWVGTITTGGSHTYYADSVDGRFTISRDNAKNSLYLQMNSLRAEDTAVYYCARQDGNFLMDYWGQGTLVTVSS VL: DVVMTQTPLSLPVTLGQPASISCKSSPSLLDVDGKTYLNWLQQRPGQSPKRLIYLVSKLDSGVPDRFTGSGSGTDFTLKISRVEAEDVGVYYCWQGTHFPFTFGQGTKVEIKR	91.8
